- Tested on: barnyard grass Echinochloa crusgalli
- test: Petri dish culture, growth inhibition of root and stalk of barnyard grass
- Assay type: in vivo
- measurement context: Echinochloa crus-galli, 120 h, 10 mg/L, root growth, 5 days, read-out: Relative inhibition, root
Below, each entry is listed alongside its reported inhibition at 10 µg/mL.
Report the figure in % without appending any unit label.

Use these answered entries as a reference point.
[[record]]
molecule = "O=c1oc(COc2ccc(Cl)cc2Cl)nc2cc(Cl)ccc12 [3p]"
value_type = "inhibition at 10 µg/mL"
recorded_measurement = 100

[[record]]
molecule = "O=c1oc(COc2ccc(Cl)cc2Cl)nc2ccc(Cl)cc12 [3o]"
value_type = "inhibition at 10 µg/mL"
recorded_measurement = 89.4

[[record]]
molecule = "COc1cc2nc(COc3ccc(Cl)cc3Cl)n(C)c(=O)c2cc1OC [4s]"
value_type = "inhibition at 10 µg/mL"
recorded_measurement = 52.2

[[record]]
molecule = "Cc1ccc2nc(COc3ccc(F)cc3)oc(=O)c2c1 [3v]"
value_type = "inhibition at 10 µg/mL"
recorded_measurement = 92.2


Given O=c1oc(COc2ccccc2)nc2ccc(Cl)cc12 [3c] , respond with its inhibition at 10 µg/mL.
62.6

Entry Cc1ccc2nc(COc3ccc(Cl)cc3)oc(=O)c2c1 [3k] needs its inhibition at 10 µg/mL filled in; supply it.
77.1

Provide measured inhibition at 10 µg/mL value, entry: O=c1oc(COc2ccccc2)nc2cccc(Cl)c12 [3b]
56.3

Give the value of inhibition at 10 µg/mL reported for the following: O=c1oc(COc2ccccc2)nc2cc(Cl)ccc12 [3d]
62.3

Respond only with inhibition at 10 µg/mL recorded for COc1cc2nc(COc3ccc(Cl)cc3Cl)n(N)c(=O)c2cc1OC [4j]
60

Indicate the recorded inhibition at 10 µg/mL value for this molecule: COc1cc2nc(COc3ccc(F)cc3)oc(=O)c2cc1OC [3w]
64.5

Write down inhibition at 10 µg/mL measured for item Nn1c(COc2ccc(Cl)cc2Cl)nc2ccc(Cl)cc2c1=O [4h]
37.5

* * *

- Tested on: rape Brassica napus
- test: Petri dish culture, growth inhibition of root and stalk of rape
- Format: in vivo
- measurement context: Brassica napus, 120 h, 1 mg/L, stalk growth, 5 days, read-out: Relative inhibition, stalk
inhibition at 1 µg/mL values, listed per item
// units = %; emit number, no label

[[record]]
structure_smiles = "COc1cc2nc(COc3ccc(Cl)cc3Cl)oc(=O)c2cc1OC"
value_type = "inhibition at 1 µg/mL"
units_symbol = "%"
recorded_measurement = 14.8

[[record]]
structure_smiles = "O=c1oc(COc2ccc(Cl)cc2Cl)nc2ccccc12"
value_type = "inhibition at 1 µg/mL"
units_symbol = "%"
recorded_measurement = 77.7


Consider the additional compound presented here.
In one line, give reported inhibition at 1 µg/mL of the entry `O=c1oc(COc2ccc(Cl)cc2)nc2ccccc12` .
56.8
